B1: glmS ribozyme (parent)
chain: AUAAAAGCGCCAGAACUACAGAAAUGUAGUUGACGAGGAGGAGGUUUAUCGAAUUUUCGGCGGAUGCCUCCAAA

Variants of: B1
Test: self-cleavage kobs at 2500 uM GlcN6P; higher = faster cleavage; RNA array
Details: with glucosamine-6-phosphate
Variants at the floor of the assay were thinned out.
RECORDED_METRIC: self-cleavage kobs at 2500 uM GlcN6P (s⁻¹)
Give the quantity in s⁻¹, number only.

Tell me the measured self-cleavage kobs at 2500 uM GlcN6P of AUAAAAGCGCCAGGACUACAGAAAUGUAGUUGACGAGGAGGAGGUUUAUCGGAUUUUCGGCGGAUGCCUCCAAA [A14G A52G] , please.
0.00234

Query AUAAAAGCGCCAGAACUACAGAAAUGUAGUGGACGAGGAGGAGGUUUAUCGAAUUUUCGGCGGAUGCCUCUAAA [U31G C71U] next
0.00836

AUAAAAGCGCCUGAACUACAGAAAUGUAGUUGACGAGGAGGAGGCUUAUCGAAUUUUCGGCGGAUGCCUCCAAA [A12U U45C] ?
0.00428

Entry to check: AUAAAUGCGCCAGAACUACAGAAAUGUAGUUGACGCGUAGGAGGUUUAUCGAAUUCUCGGCGGAUGGGUCCAAA [A6U A36C G38U U56C C67G C68G]
0.000145

Next variant: AUAAAAGCGCCAGAACUACAGAAAUGUAGUUGACGAGGGGGAGGUUUAUCGACUUUUCGGCGGAUGCCUCCAAA [A39G A53C]
0.0068

Thanks! And AUAAAAGCGCUAGAACUACAGAAAUGUAGUUGACGAGGAGGAGGUUUAUCGAAUUUUCGGCGGAUGCCUACAAA [C11U C70A] ?
5.81e-05

Further, for AUAAAAGCGCCAGAACUACAGAAAUGUAGUUGCCGAGGAGGAGGUUUAUCGAGUUUUCGGCGGAUGCCUCCAAA [A33C A53G] ?
7.39e-05

How about this variant: AUAAAAGCGCCAGAACUACAGAAAUGUAGUUGACGACGAGGAGGUUUAUCGAAUUUUCGGCGGAUACCUCCAAA [G37C G66A]
3.43e-05

Lookup AUAAAAGCGCAUGAACUACAGAAAUGUAGUUGACGAGGAGGAGGGUUAUCGAAUAUUCGGCGGAUGCCUUCAAA [C11A A12U U45G U55A C70U]
7.5e-05
